System: RXF 393 renal
Test summary: NCI tumour cell line growth inhibition, 48 h
So I've got a bunch of molecules here, and I need their TGI values.
Provide the reading as a plain figure in µM.

Input: Give RXF 393 renal TGI for CCNC(=O)Oc1ccc(/C(=C(\C)c2ccc(Cl)cc2)c2ccc(OCCN(CC)CC)cc2)cc1
Output: 9.84

Input: Query the reported TGI for RXF 393 renal; item: Cc1ccc(S(=O)(=O)OCC(=O)Nc2ccc(C(=O)O)c(O)c2)cc1
Output: 85

Input: API: value(readout= TGI, system= RXF 393 renal, query= NC(=O)c1cc(I)ccc1NC(=O)/C=C/c1ccccc1Cl )
Output: 2.18

Input: Query for RXF 393 renal: what TGI does the record show for CCCCOC(=O)/C=C\C(=O)NC(N)=O ?
Output: 27.1

Input: Record lookup: for RXF 393 renal, what TGI belongs to C=C[C@]1(C)CC(=O)C(C(C)C=O)[C@]12C(=O)Oc1cccc(C)c1C2=O (some centres undefined) ?
Output: 27.6

Input: Tell me reported TGI for O=C(/C=C/c1ccco1)Nc1ncc(Cc2cccc(C(F)(F)F)c2)s1 , tested with RXF 393 renal.
Output: 0.853

Input: Request: TGI, test system RXF 393 renal, entry Fc1cc(C2=Nn3c(CNc4ccc(Cl)cc4)nnc3S/C2=C\c2ccc(-c3ccc(Cl)cc3)o2)c(Cl)cc1Cl
Output: 61.4

Input: Request - read-out TGI | tested on RXF 393 renal | molecule O=C(CC(Cc1ccccc1)c1ccc(Oc2ccccc2)cc1)Nc1cccc(Cl)c1 (centres undefined)
Output: 62.8

Input: Any idea what TGI came out for CC(C)C1CC(CO)(CNc2nc(N)nc(Cl)c2/C=N\O)C1 (centres undefined) on RXF 393 renal?
Output: 55.1

Input: Identify the measured TGI of N#CC(C(=O)/C(=N/NC(=O)c1ccccc1O)C(C#N)c1ccc(Br)cc1)c1ccc(Br)cc1 (centres undefined) for RXF 393 renal.
Output: 16

Input: Record lookup: for RXF 393 renal, what TGI belongs to Cn1cnc([N+](=O)[O-])c1Sc1nc2ccccc2o1 ?
Output: 22.1

Input: Find the measured TGI: item CN1C(=O)N/C(=C\c2ccc(S(=O)(=O)N/N=C/c3ccccc3)cc2)C1=O , target or system RXF 393 renal.
Output: 98.1

Input: Tell me reported TGI for O=[N+]([O-])c1ccc(Cc2nc3cc4ccccc4cc3[nH]2)cc1C(F)(F)F , tested with RXF 393 renal.
Output: 32.1

Input: # returns recorded TGI (system: RXF 393 renal) for CCOC(=O)c1cc(-c2ccc([N+](=O)[O-])cc2)c([N+](=O)[O-])[nH]1
Output: 9.41

Input: Tell me reported TGI for CCCCCCCCCC(=O)NCCc1c[nH]c2ccc(OC)cc12 , tested with RXF 393 renal.
Output: 38

Input: Enter reported TGI observed with RXF 393 renal for O=C(Nc1ccc(Oc2ccc(NC(=O)Nc3ccccc3Cl)cc2)cc1)Nc1ccccc1Cl
Output: 11.4

Input: # value lookup — system RXF 393 renal, readout TGI, item CS(=O)(=O)O[C@H]1C(=O)N(c2cc3c4ccccc4ccc3c3ccccc23)[C@@H]1c1ccccn1
Output: 0.878

Reference source for all entries: PubChem BioAssay (NCI)
